biological target: horse serum BChE (Equus caballus, UniProt P81908); assay: biochemical; settings: ± SD, n = 3
Sequence (P81908 whole entry): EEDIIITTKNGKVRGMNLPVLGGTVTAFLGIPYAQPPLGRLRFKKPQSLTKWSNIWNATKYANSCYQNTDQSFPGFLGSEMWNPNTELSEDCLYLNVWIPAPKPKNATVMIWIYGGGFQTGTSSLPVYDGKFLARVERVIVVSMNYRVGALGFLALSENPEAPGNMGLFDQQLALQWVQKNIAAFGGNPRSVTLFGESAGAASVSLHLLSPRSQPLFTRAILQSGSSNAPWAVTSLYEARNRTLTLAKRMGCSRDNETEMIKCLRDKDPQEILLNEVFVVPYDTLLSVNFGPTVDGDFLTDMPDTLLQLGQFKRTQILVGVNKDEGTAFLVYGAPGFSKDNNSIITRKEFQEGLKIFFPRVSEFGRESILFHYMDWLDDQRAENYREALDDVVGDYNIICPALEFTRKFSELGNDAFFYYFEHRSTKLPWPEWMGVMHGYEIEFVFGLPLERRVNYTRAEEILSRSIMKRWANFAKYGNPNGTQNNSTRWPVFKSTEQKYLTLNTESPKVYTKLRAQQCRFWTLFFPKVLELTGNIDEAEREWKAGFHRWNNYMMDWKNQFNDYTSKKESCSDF
reportedProperty: pIC50
Answer as the number alone; pIC50 is minus log10 of concentration in mol/L.

Prompt line: Read the entry O=c1c(O)c(-c2ccc(O)c(O)c2)oc2cc(O)ccc12 and write its reported pIC50.
Response line: 2.02

----------
// reported inhibition at 10000 µM for each item listed
target: horse serum BChE (Equus caballus, UniProt P81908); experiment: biochemical; assay type: biochemical; settings: at 10 mM; ± SD, n = 3; read-out: Enzyme inhibition (% ± SD) at 10 mM, BChE

Here are 2 compounds together with their reported answers.
# lineNotation, reportedMeasurement
data = [
    ("O=c1cc(-c2ccc(O)c(O)c2)oc2cc(O)cc(O)c12", "< 0%"),
    ("COc1cc(C(=O)O)ccc1O", "35.1%"),
]

Here is the next item to consider.
Prompt line: Find inhibition at 10000 µM for O=c1c(O)c(-c2ccc(O)c(O)c2)oc2cc(O)ccc12 on horse serum BChE (Equus caballus, UniProt P81908) and write it down.
Response line: 76.2%

----------
// reported inhibition at 10000 µM for each item listed
molecular target: horse serum BChE (Equus caballus); assay: biochemical; type: biochemical; settings: at 10 mM; ± SD, n = 3; read-out: Enzyme inhibition (% ± SD) at 10 mM, BChE

# lineNotation, inhibition at 10000 µM
data = [
    ("Oc1ccc(-c2[o+]c3cc(O)cc(O)c3cc2O)cc1", "25.3%"),
]

Prompt line: Read the entry O=c1cc(-c2ccc(O)cc2)oc2cc(O)cc(O)c12 and write its reported inhibition at 10000 µM.
Response line: < 0%

Prompt line: Read the entry O=C(/C=C/c1ccc(O)c(O)c1)O[C@@H]1C[C@](O)(C(=O)O)C[C@@H](O)[C@H]1O and write its reported inhibition at 10000 µM.
Response line: 25.4%

Prompt line: Read the entry O=c1c(O)c(-c2ccc(O)c(O)c2)oc2cc(O)cc(O)c12 and write its reported inhibition at 10000 µM.
Response line: 99.4%

Prompt line: Read the entry O=C(O)c1cc(O)c(O)c(O)c1 and write its reported inhibition at 10000 µM.
Response line: 84.4%

Prompt line: Read the entry O=c1c(-c2ccc(O)cc2)coc2cc(O)cc(O)c12 and write its reported inhibition at 10000 µM.
Response line: < 0%

Prompt line: Read the entry O=c1cc(-c2ccc(O)c(-c3c(O)cc(O)c4c(=O)cc(-c5ccc(O)cc5)oc34)c2)oc2cc(O)cc(O)c12 and write its reported inhibition at 10000 µM.
Response line: < 0%

Prompt line: Read the entry O=c1c(O)c(-c2ccc(O)cc2)oc2cc(O)cc(O)c12 and write its reported inhibition at 10000 µM.
Response line: < 0%

Prompt line: Read the entry O=c1oc2c(O)c(O)cc3c(=O)oc4c(O)c(O)cc1c4c23 and write its reported inhibition at 10000 µM.
Response line: < 0%

Reference source: paper PMC12537693
